- Test system: TK-10 renal
- Measurement description: NCI-60 one-dose screen, 48 h (100 = growth as untreated, 0 = no growth, -100 = all killed)
- Assay conditions: 10 µM unless noted
About 83,000 compounds went through this panel and 20% of them were active in at least one assay; those are over-represented in the sample as a whole.
Metric name: growth (%)
Please state the figure in %; there is no need to write the unit.

{"Molecule": "CCCC(C)SP(=S)(SC(C)CCC)SC(C)CCC (stereo not given)", "Metric name": "growth", "Result number": 104}

Prompt: Endpoint output: growth of COc1ccc2c(c1)c(-c1nc(-c3c[nH]c4ncccc34)cs1)cn2CCCCN1CCOCC1 . Value?
Response: 64.4

Prompt: Queued: CC[C@@H](C)C(=O)O[C@H]1[C@H](O)[C@H]2[C@@H](CN3C[C@@H](C)CC[C@H]3[C@@]2(C)O)[C@@H]2C[C@]34O[C@]5(O)[C@@H](OC(=O)[C@@](C)(O)CC)CC[C@@]3(C)[C@@H]5[C@@H](OC(C)=O)[C@@H](OC(C)=O)[C@H]4[C@@]21O
Response: 106

Prompt: c1ccc(CCN2CCCCC2)nc1 ?
Response: 103

Prompt: Now the molecule COc1ccc2c(c1)c(-c1nc(-c3cn(C)c4ncccc34)cs1)cn2CCCCN1CCOCC1
Response: 69.9

Prompt: Same read-out for Cc1nnc([S-])o1.[Au+].c1ccc([PH+](c2ccccc2)c2ccccc2)cc1 ?
Response: 102

Prompt: # iterate: O=C(Cc1ccccc1)NC(O)C(Cl)(Cl)Cl (stereo not given)
Response: 99.8

Prompt: Another molecule: COc1cc2c(cc1OC)-c1c3c(cc4c1[C@@H](C2)N(C)CC4)OCO3
Response: 67.3

Prompt: Try CCOC(=O)c1ccccc1C(=O)OCC next.
Response: 98.2

Prompt: // next record O=[N+]([O-])c1c(Cl)cc(Cl)c([N+](=O)[O-])c1Cl
Response: 112

Prompt: Same for C[C@@H]1C/C=C\C(=O)O[C@H](/C=C/C#C/C=C/C(C)(C)[C@@H](O)c2cccc(O)c2Br)[C@@H](C)/C=C/[C@H](C)C[C@H](OC(N)=O)C1
Response: 43.5

Prompt: Then CC1(C)S[C@H]2CC[C@H]3OC(=O)[C@@H]1N23 ?
Response: 91.9

Prompt: Follow-up item: O=[N+]([O-])c1ccc(OCc2ccc(S(=O)(=O)F)c(Cl)c2)c(Cl)c1
Response: 102

Prompt: How about S=P(SP(=S)(c1ccccc1)c1ccccc1)(c1ccccc1)c1ccccc1 ?
Response: 96.8

* * *

- System: UACC-257 melanoma
- Measurement description: NCI-60 one-dose screen, 48 h (100 = growth as untreated, 0 = no growth, -100 = all killed)
- Assay conditions: 10 µM unless noted
About 83,000 compounds went through this panel and 20% of them were active in at least one assay; those are over-represented in the sample as a whole.
Entries annotated with measured growth
The reply should contain only the number, in %.

Solved cases (5 shown):
{"Compound": "COc1ccc2c(c1)c(-c1nc(-c3c[nH]c4ncccc34)cs1)cn2CCCCN1CCOCC1", "Metric name": "growth", "Units of measure": "%", "Result number": 79.5}
{"Compound": "COc1ccc2c(c1)c(-c1nc(-c3cn(C)c4ncccc34)cs1)cn2CCCCN1CCOCC1", "Metric name": "growth", "Units of measure": "%", "Result number": 63.5}
{"Compound": "N#CCc1ccc(CC#N)cc1", "Metric name": "growth", "Units of measure": "%", "Result number": 89}
{"Compound": "CC1=C([Te]c2ccccc2)C(=O)c2ccccc2C1=O", "Metric name": "growth", "Units of measure": "%", "Result number": -26.2}
{"Compound": "O=S(OO)c1cc(Cl)c(O)c(Cl)c1 (configuration not stated)", "Metric name": "growth", "Units of measure": "%", "Result number": 99.6}

Prompt: Query: growth; subject: C[C@]12CCc3sc(Nc4ccc(O)cc4)nc3C1=CC[C@@H]1[C@@H]2CC[C@]2(C)C(=O)CC[C@@H]12
Response: 73.4

Prompt: Then what about the compound N#Cc1ccc(Cl)cc1 ?
Response: 104

Prompt: Also check CC[C@H](CC[C@@H](C)[C@H]1CC[C@H]2[C@@H]3CC[C@H]4C[C@]5(CC[C@]4(C)[C@H]3CC[C@]12C)OO[C@](C)(C(F)(F)F)O5)C(C)C
Response: 95.3

Prompt: Same thing, different compound: Cc1cc(N)ccc1N
Response: 97.2

Prompt: Check CC(=O)c1cccc(S(=O)(=O)F)c1 too.
Response: 99.2

Prompt: And for O=C(O)CNCP(=O)(O)O ?
Response: 107

Prompt: And for CC(Oc1ccc(-c2ccccc2)cc1)C(=O)O (configuration not stated) ?
Response: 99.2

Prompt: Now consider C/C(=C\c1ccn(-c2ccc(N)c(C(F)(F)F)c2)n1)[C@@H]1C[C@@H]2O[C@]2(C)CCC[C@H](C)[C@H](O)[C@@H](C)C(=O)C(C)(C)[C@@H](O)CC(=O)O1 .
Response: 64.3

Prompt: Same question for C[N+]1(C)CCCC1c1cccnc1 (configuration not stated) please.
Response: 96.9

Prompt: // same read-out, input: NC1CN2CCC1CC2 (configuration not stated)
Response: 101

Prompt: Same read-out for CC[PH+](CC)CC.O=COC1OC([S-])C(OC=O)C(OC=O)C1OC=O.[Au+] (configuration not stated) ?
Response: -83.6

Prompt: Try this compound too: O=P(O)(Nc1ccccc1)Nc1ccccc1
Response: 89.3

Prompt: Now try O=C(Cc1ccccc1)c1ccccc1 .
Response: 98

Prompt: What do you get for CSc1cc(/C=C(\C)[C@@H]2C[C@@H]3O[C@]3(C)CCC[C@H](C)[C@H](O)[C@@H](C)C(=O)C(C)(C)[C@@H](O)CC(=O)O2)n(CCNC(=O)OC(C)(C)C)n1 ?
Response: 91.9

Prompt: Continue with N#CCN(CC#N)[N+](=O)[O-]
Response: 113

Prompt: Request: COc1c(O)cc2c(c1OC)-c1ccc(SC)c(=O)cc1C(NC(C)=O)CC2 (configuration not stated)
Response: 20.1

Prompt: # iterate: O=[N+]([O-])c1c(Cl)cc(Cl)c([N+](=O)[O-])c1Cl
Response: 62.9
